molecular target: human Nav1.7 (full length) (human) (UniProt Q15858); assay: cell-based or functional assay
Quick reference for % inhibition of inward current following P02 voltage protocol, 100 µg/ml among some binders
measure: % inhibition of inward current following P02 voltage protocol, 100 µg/ml (%)

binder	measurement
9A6 (antibody, V domains shown) VH: EVQLVQPGAELRNPGASVKVSCKASGYTYTSAYIVWVRQAPGEGLEWMGRIDPEDGGTKYAQKFQGRVTFTADTSTNTAYVELSSLRSDDTAVYYCTAGLDYWGKGTLVTVSS VL: ATMLTQSPGSLSVVPGESASISCKASQSLVHSDGMTYLYWLQQKPGQSPQRLIYRVSRRGSGVPDRFTGSGSGTDFTLNISDMKAEDAGVYYCAQDTYYPYSFGSGTSVEIK	36.2
9G6 (antibody, human IgG1, V domains shown) VH: EVQLVQPGAELTKPGASVKVSCNTSGYTFTGYYIDWVRQVPGEGLEWMGRIDPEDGDTKYAQKFQGRVTITADTSTTTAYMELSSLRSEDTAVYYCSLGVDYWGQGTQVTVSS VL: ATMLTQSPGSLSVVPGESASISCKTSQSLVHSDGKTYLYWLLQKPGQSPQRLIYQVSNRDSGVPDRFTGSGSGTDFTLKISGVKAEDAGVYYCAQTTYDPVTFGQGTKVELK	37.5
9H4 (antibody, human IgG1, V domains shown) VH: EVQLVQPGAELRNPGASVKVSCKASGYIFTSAYIDWVRQAPGQGLEWMGRIDPEDGETRYAHQFRDRVTFTADTSTSTVYAELNSLRSEDTAVYYCAITIEGFWGQGTQVTVSS VL: ATMLTQSPGSLSVVPGESASISCKTSRSLVHSDGKTYLSWLLQKPGQSPQRLIYQVSNRGSGVPDRFTGSGSGTDFTLKISGVKAEDAGVYYCAQATYYPLSFGSGTRVEIK	23.9
8B6 (antibody, human IgG1, V domains shown) VH: EVQLQESGPGLVKPSQTLSLTCTVSGGSISTSGTGWSWIRQPPGKGLEWMGIIGYDGGTYYNPSLKSRTSISRDTSKNQFSLQLTSVTPEDTAVYYCARGLGPWGQGIQVTVSS VL: DIQMTQSPSSLSASLGDRVTITCQASQGISKYLAWYQQKPGQAPKLLIYSASRLETGVPSRFSGSGSGTTFTLVISGLEAEDAGSYYCQQYYRAPATFGQGTKVELK	72.2
9A11 (antibody, human IgG1, V domains shown) VH: EVQLVQPGAEVRRPGAAVKVSCKASGFALISSYIDWVRQAPGQGLEWMGRIDPEDGGTSYAQKFQGRVTVTVDTATSTAYVELSSLRSDDTGVYFCMVGDSGYWGQGTQVTVSS VL: ATMLTQSPGSLSVVPGESASISCKASQSLVHTDGKTYLSWLLQKPGQSPQRLIYQVSTRGSGVPDRVTGSGSGTDFTLKISGVKAEDAGVYYCAQTTYYPPTFGQGTKVELK	62.3
